tested on: ERK5; construct: gene MAPK7; conditions: concentration: 1 μM, replicates: in singlicate; n = 1;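 note: KINOMEscan kinase panel screen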
Entries and their %Inh values follow.
Answer format reminder: number followed by unit.

These solved cases illustrate the format of a correct answer.
Given the entry Fc1ccc(-c2nc3n(c2-c2ccncc2)CCS3)cc1 [GI98581] , report its measured %Inh.
0%

Another molecule: Cc1c(Cn2c3ccccc3n3c(=O)cc(N4CCOCC4)nc23)cccc1C(F)(F)F [GSK2306394]
0%

What about CC(=O)c1c(C)c2cnc(Nc3ccn(C)n3)nc2n(C2CCCC2)c1=O ?
9%

New cases:
Quick check: %Inh of O=C(Nc1n[nH]c2cc(-c3ccsc3)ccc12)C1CC1 [SB-732932] ?
3%

Try the molecule COC(=O)C(NC(=O)NC1CCN(c2ccnc(Nc3ccc(F)cc3)n2)C1)c1ccccc1 (stereo not drawn) [GSK1379712]
13%
